// cross-source set; read-out = pIC50; system = GCN2 (Homo sapiens (Human), UniProt Q9P2K8)
Sequence (Q9P2K8 whole entry, species assumed): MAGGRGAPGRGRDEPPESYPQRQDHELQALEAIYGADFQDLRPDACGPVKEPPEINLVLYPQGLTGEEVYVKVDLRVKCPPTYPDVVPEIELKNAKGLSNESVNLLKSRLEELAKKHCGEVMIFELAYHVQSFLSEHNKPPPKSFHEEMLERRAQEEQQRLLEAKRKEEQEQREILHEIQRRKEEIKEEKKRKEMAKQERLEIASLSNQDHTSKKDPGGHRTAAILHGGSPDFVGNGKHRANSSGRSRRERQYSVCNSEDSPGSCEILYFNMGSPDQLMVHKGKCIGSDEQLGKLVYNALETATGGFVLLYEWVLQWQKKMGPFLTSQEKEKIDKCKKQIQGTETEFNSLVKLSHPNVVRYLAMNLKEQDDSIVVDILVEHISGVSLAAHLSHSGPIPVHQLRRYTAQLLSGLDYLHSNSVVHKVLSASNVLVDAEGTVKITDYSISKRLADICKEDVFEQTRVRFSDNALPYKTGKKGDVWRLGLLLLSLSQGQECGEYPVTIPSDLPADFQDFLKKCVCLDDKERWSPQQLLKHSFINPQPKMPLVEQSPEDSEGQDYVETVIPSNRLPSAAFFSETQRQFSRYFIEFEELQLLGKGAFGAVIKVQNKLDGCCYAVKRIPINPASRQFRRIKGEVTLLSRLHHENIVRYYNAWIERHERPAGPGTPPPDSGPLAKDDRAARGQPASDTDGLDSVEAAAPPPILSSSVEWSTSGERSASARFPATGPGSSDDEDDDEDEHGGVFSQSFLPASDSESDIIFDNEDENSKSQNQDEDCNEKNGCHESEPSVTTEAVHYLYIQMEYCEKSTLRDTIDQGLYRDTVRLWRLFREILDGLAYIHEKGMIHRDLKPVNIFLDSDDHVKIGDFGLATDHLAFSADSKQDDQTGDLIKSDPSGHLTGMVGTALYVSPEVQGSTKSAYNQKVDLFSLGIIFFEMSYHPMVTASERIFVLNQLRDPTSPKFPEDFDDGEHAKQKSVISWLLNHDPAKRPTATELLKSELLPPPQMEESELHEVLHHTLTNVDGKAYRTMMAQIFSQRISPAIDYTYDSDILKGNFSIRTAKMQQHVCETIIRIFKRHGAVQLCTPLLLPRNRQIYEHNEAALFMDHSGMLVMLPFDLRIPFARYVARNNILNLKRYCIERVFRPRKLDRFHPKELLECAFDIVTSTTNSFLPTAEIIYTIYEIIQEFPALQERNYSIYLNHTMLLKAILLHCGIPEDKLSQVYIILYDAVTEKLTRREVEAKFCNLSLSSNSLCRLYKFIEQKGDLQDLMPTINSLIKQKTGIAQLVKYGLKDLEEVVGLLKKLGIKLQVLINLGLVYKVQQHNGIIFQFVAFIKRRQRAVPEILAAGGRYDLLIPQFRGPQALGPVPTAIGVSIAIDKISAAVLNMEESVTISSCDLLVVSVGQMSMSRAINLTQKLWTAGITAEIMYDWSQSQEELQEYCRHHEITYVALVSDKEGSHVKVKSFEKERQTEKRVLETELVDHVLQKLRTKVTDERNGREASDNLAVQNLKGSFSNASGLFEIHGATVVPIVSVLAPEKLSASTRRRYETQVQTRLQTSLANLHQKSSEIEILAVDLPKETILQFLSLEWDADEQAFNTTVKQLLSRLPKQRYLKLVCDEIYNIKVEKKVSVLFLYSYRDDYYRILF
pIC50: −log10 of the molar value.

Guide cases for pIC50, answers given:
NC(=O)[C@H]1CCCN(c2ncc(F)c(-c3cnc4ccc(C(F)(F)F)cn34)n2)C1
7.00 to 8.00
CN(CC1CCCN(c2ccnc(-c3cnc4ccc(Cl)cn34)n2)C1)S(C)(=O)=O (stereo not shown)
7.00 to 8.00

Exam item: Entry `C[C@@H]1C[C@H](N=S(C)(C)=O)CN(c2ccnc(-c3cnc4ccc(Oc5ccccc5)cn34)n2)C1` has what pIC50?
Marked response: 6.00 to 7.00

Exam item: Then this molecule: `Cc1[nH]ncc1[C@H]1[C@H](C)N(c2ccnc(-c3cnc4ccc(C(F)(F)F)cn34)n2)CCN1C1COC1`
Marked response: 6.00 to 7.00

Exam item: Note, next up: `COc1cc(Nc2nc3cncc(-c4cnn(C)c4)n3n2)ccc1C(=O)NC1CC1`
Marked response: > 6.00

Exam item: Let us now turn to `Cc1cc(-c2cnc3ccc(Cl)cn23)nc(N2C[C@@H](C)C[C@@H](c3cn[nH]c3)C2)n1`
Marked response: 7.00 to 8.00

Exam item: Do the same for `CCc1cc(-c2c(F)ccc(NS(=O)(=O)c3cc(Cl)cnc3OC)c2F)cc2cnc(N[C@H]3CC[C@H](N)CC3)nc12` please
Marked response: 8.29

Exam item: // query: CC1CN(c2ccnc(-c3cnc4ccc(C(F)(F)F)cn34)n2)CCC1n1cccn1 (stereo not shown)
Marked response: 7.00 to 8.00

Exam item: Next molecule: `COCCNC[C@@H]1CC[C@@H](Nc2ncc3cc(-c4c(F)ccc(NS(=O)(=O)c5cc(Cl)cnc5OC)c4F)ccc3n2)C1`
Marked response: 8.40

Exam item: Now consider FC(F)(F)CCN1CCN(c2ccnc(-c3cnc4ccc(C(F)(F)F)cn34)n2)CC1c1cn[nH]c1 (stereo not shown) .
Marked response: > 8.00

Exam item: Also need CS(=O)(=O)C1CC(N2CCN(c3ccnc(-c4cnc5ccc(C(F)(F)F)cn45)n3)C[C@@H]2c2cn[nH]c2)C1 (stereo partly shown) , thanks.
Marked response: > 8.00

Exam item: Please do the same for `Cc1noc([C@@H]2CN(c3ccnc(-c4cnc5cc(F)c(C6CC6)cn45)n3)C[C@H](C)O2)n1` as well.
Marked response: 6.00 to 7.00

Exam item: Item: CC1CCC(C(N)=O)CN1c1ccnc(-c2cnc3ccc(C(F)(F)F)cn23)n1 (stereo not shown)
Marked response: > 8.00

Exam item: What do you have for `Cc1[nH]ncc1[C@H]1CN(c2ccnc(-c3cnc4cc(F)c(Cl)cn34)n2)C[C@H](C)O1` ?
Marked response: 7.00 to 8.00

Exam item: Queued: `C[C@H]1CN(c2ccnc(-c3cnc4ccc(C(F)(F)F)cn34)n2)C[C@@H](C(N)=O)O1`
Marked response: > 8.00

Exam item: Then `COCCn1cc(-c2ccc(-n3cnc4cnc(N[C@@H]5CCNC5)nc43)cc2)cn1` ?
Marked response: 5.00 to 5.30
